experimentalDetails: A CellTox Green Cytotoxicity Assay to monitor cytotoxicity in HepG2 cells - 0 hour (AID 1224882); also: nearly all actives have a fitted effect of over 35% in size
testContext: CellTox Green fluorescence; series mostly up to 76.8 µM
Activity calls are given as the source filed them. Calls follow the shape of the dose curve; as a rule, active = well fitted activation curve with a large enough effect in the repeat runs; inconclusive = weak or mixed curves; inactive = flat fitted curve, though single readings scatter.
measurementLabel: outcome

compound | outcome
CC(C(O)c1ccccc1)N(C)C/C=C/c1ccccc1 (stereo not drawn) | inactive
CCSC(=O)N(CC)C1CCCCC1 | inactive
CCS(=O)(=O)C(C)(C)S(=O)(=O)CC | inactive
CC(C(=O)c1ccccc1)N(C)C (stereo not drawn) | inactive
CCOP(=S)(OCC)SCSc1ccc(Cl)cc1 | inactive
C#CCN1C(=O)COc2cc(F)c(N3C(=O)C4=C(CCCC4)C3=O)cc21 | inactive

outcome lookup needed for N#CCCC#N , thanks.
inactive

Repeat for the following compound: [O]=[Cd]
inactive
